Test system: A549
Assay info: NCI tumour cell line growth inhibition, 48 h
Calls of active or inactive are those of the source. No stated cut-off is given here; in the data, active = GI50 up to about 1.1 µM and inactive = higher.
I'd appreciate it if you could supply GI50 values for the items below.

Solved cases (3 shown):
Molecule | Endpoint label | Result
CC(C)OC(=O)C(NC(=O)C(CC(=O)OCc1ccccc1)NC(=O)OCc1ccccc1)NC(=O)C1C(C)(C)CCC1(C)C (stereo not given) | GI50 | 2.22 µM (inactive)
CCN(CC)C(=S)N/N=C/c1cc(OC)ccc1O | GI50 | 4.17 µM (inactive)
COC(=O)C(C(=O)c1ccccc1)C(C(=O)C(=O)Nc1ccc(OC)cc1OC)C(=O)C(=O)c1ccc(C)cc1 (stereo not given) | GI50 | > 100 µM (inactive)

Fill in GI50 for each of the 2 molecules listed.
1. Nc1nc(N)c2cc(Sc3ccc4ccccc4c3)ccc2n1
2. Cc1ccc(/N=C2/S/C(=C3/CCC=C3N3CCOCC3)N(c3ccc(Cl)cc3)/C2=N/c2ccc(C)cc2)cc1

-- reply
0.343 µM (active)
> 100 µM (inactive)

* * *

Test system: OVCAR-4
Assay info: NCI tumour cell line growth inhibition, 48 h
Calls of active or inactive are those of the source. Cut-off read from the data, not from the text of the source: active = GI50 up to about 1.1 µM and inactive = higher.
Outcome (select one): TRUE = active, FALSE = inactive

Molecule | Measurement target | Category label
CCC(=O)Nc1cccc(/N=C/c2ccc(OC(=O)/C=C\c3ccccc3)cc2)c1 | OVCAR-4 | FALSE

-- ask I would be grateful if you could indicate the recorded call for `c1ccc2c3c([nH]c2c1)C1(CCCCC1)c1c([nH]c2ccccc12)C31CCCCC1` .
-- reply FALSE

-- ask Same read-out for `Oc1ccc(Br)cc1/C=N/C1CCCCC1` ?
-- reply FALSE

-- ask Try this molecule too: `N=C1N=C(N)c2cc3c(cc21)SCCSCCCSCCS3`
-- reply FALSE

-- ask Proceed to [N-]=[N+]=CC(=O)C1CCN(c2ccccc2)C1=O (stereo unspecified)
-- reply FALSE

-- ask Proceed to `COCN1C(=O)[C@@H]2CCCN2C(=O)c2cc(N)ccc21`
-- reply FALSE

* * *

System: CCRF-CEM
Assay info: NCI tumour cell line growth inhibition, 48 h
The source made the active and inactive calls. Cut-off read from the data, not from the text of the source: active = GI50 up to about 1.1 µM and inactive = higher.
Give measured GI50 for each item. Keep answers brief.

Consider the following illustrative entries.
Compound | Result
CC(=O)NC(CSC1=C2NC(=O)\C=C/C=C\C=C/C(C)C(O)CC(=O)/C(C)=C\CC(O)/C=C\C(C)C(O)C(C)C=C(C)C(=O)c3c(O)c(C)cc(c3C1=O)C2=O)C(=O)O (stereo not drawn) | 22.3 µM (inactive)
CCO/C([O-])=C(\C(=O)c1ccc([N+](=O)[O-])cc1)[n+]1c(C)n(C)c2ccccc21 | > 100 µM (inactive)
COc1nc(N)nc2c1n(C)c[n+]2C | > 100 µM (inactive)
O=C(CCCl)NN=C1NCCCCN1 | > 100 µM (inactive)
CCc1n[nH]c(=O)n1N1C(=O)C2CC=CCC2C1=O (stereo not drawn) | > 100 µM (inactive)

Provide GI50 values for the following items, in order.
1. Nc1ccc2c3[nH]c4cc(N)ccc4cc-3nc2c1
2. COc1ccc(OC)c(C[P+](c2ccccc2)(c2ccccc2)c2ccccc2)c1
3. OC1OCC(COc2cc(Cl)c(Cl)cc2Cl)OC1O (stereo not drawn)
4. NNC(=O)Nc1cccnc1

-- reply
0.158 µM (active)
2.56 µM (inactive)
32 µM (inactive)
> 100 µM (inactive)

* * *

System: OVCAR-4
Assay info: NCI tumour cell line growth inhibition, 48 h
Active and inactive are the calls of the source. Cut-off read from the data, not from the text of the source: active = GI50 up to about 1.1 µM and inactive = higher.
I would appreciate it if you answered using one of these outcomes: 1 (yes) for active, 0 (no) for inactive

Here's what some known entries look like.
Compound | Category label
CCOc1ccc2c(c1)[n+]([O-])c(-c1ccc(Cl)cc1)c(N)[n+]2[O-] | 0 (no)
CCOc1ccc(/N=C/c2ccnc3ccccc23)cc1 | 0 (no)

-- ask Which outcome was assigned to `Cc1ccsc1C(=S)Nc1ccc(Cl)c(C(=O)OC(C(C)C)C(C)C)c1` in this test?
-- reply 0 (no)

-- ask Then CC(=O)NC(CSC1=C2NC(=O)\C=C/C=C\C=C/C(C)C(O)CC(=O)/C(C)=C\CC(O)/C=C\C(C)C(O)C(C)C=C(C)C(=O)c3c(O)c(C)cc(c3C1=O)C2=O)C(=O)O (stereo unspecified) ?
-- reply 0 (no)

-- ask Cool, now CCCCCCCCCCCC(=O)OCC1OC(n2cc(F)c(=O)[nH]c2=O)C(N)C(OC(=O)CCCCCCCCCCC)C1O (stereo unspecified)
-- reply 0 (no)

-- ask Ok, now CCCCCCCCCC(=O)OCC1OC(n2cc(F)c(=O)[nH]c2=O)C(NC(=O)OCc2ccccc2)C(OC(=O)CCCCCCCCC)C1O (stereo unspecified)
-- reply 0 (no)

-- ask Item: `O=CCCCC(Sc1ccccc1)Sc1ccccc1`
-- reply 0 (no)

-- ask Lookup `Nc1ccc2c3[nH]c4cc(N)ccc4cc-3nc2c1`
-- reply 1 (yes)

-- ask `NC(=O)N(O)c1cccc(Br)c1` ?
-- reply 0 (no)

-- ask And what about the compound Cc1cc2nc3c(C(OC4OC(CO)C(O)C(O)C4O)C(O)CO)nn(-c4ccc(F)cc4)c3nc2cc1C (stereo unspecified) ?
-- reply 0 (no)

-- ask Again, but for `O=C(NNC(=S)Nc1ccccc1)c1cc(-c2ccccc2)nc2ccccc12`
-- reply 0 (no)

* * *

Tested on: HOP-62
Assay info: NCI tumour cell line growth inhibition, 48 h
Activity calls are given as the source filed them. Rule as the data show it: active = GI50 up to about 1.1 µM and inactive = higher.
API: response.call in active, inactive

Past entries and their recorded results:
Compound | Category label
COC(c1ccc(C(C)(C)C)cc1)(c1ccc(C(C)(C)C)cc1)c1ccc(C(C)(C)C)cc1 | inactive
C[C@@]12CCC(=O)c3coc(c31)C(=O)c1cc3c(cc12)C(=O)C=CC3=O [HELENAQUINONE] | inactive
O=C(NCCNCCO)c1cccc2ccc(-c3ccccc3)nc12 | inactive
FC(F)(F)c1nc(-c2ccccc2Cl)[nH]c1C(F)(F)F | active
COc1cc(/C=C/c2ccc(OC)c(O)c2)cc(OC)c1 | inactive
N=C1N=C(N)c2cc3c(cc21)SCCSCCCSCCS3 | inactive

-- ask Returns: the outcome recorded for CC(OCc1ccccc1)C(NC(=O)C1CSSCC(NC(=O)C(Cc2ccccc2)NC(=O)OCc2ccccc2)C(=O)NC(Cc2ccccc2)C(=O)NC(Cc2cn(C=O)c3ccccc23)C(=O)NC(CCCCNC(=O)OCc2ccccc2)C(=O)NC(C(C)OCc2ccccc2)C(=O)N1)C(N)=O (stereo not drawn) in this assay.
-- reply inactive

-- ask Next up: CC1CC(C#N)=C2NCCCCN2C1=O (stereo not drawn)
-- reply inactive

-- ask Can you handle `O=C(Cc1ccc2ccccc2c1)NCc1ccc(C(=O)NCCc2ccccc2)cc1` next?
-- reply inactive

-- ask Next: `Cc1cc(N(CCC#N)S(C)(=O)=O)ccc1C=O`
-- reply inactive

* * *

Tested on: NCI-H522
Assay info: NCI tumour cell line growth inhibition, 48 h
Calls of active or inactive are those of the source. Cut-off read from the data, not from the text of the source: active = GI50 up to about 1.1 µM and inactive = higher.
Mark one answer only. Choices: T for active, F for inactive

Compound | Category label
Nc1ccc2c3[nH]c4cc(N)ccc4cc-3nc2c1 | F

-- ask Kindly provide the recorded test outcome for the following compound: C=CC(OC(C)=O)c1ccc(OC(C)=O)cc1 (configuration not stated)
-- reply F

-- ask And then `CN(C)CCNc1ccc(NCC[N+](C)(C)Cc2ccc([N+](=O)[O-])cc2)c2c1C(=O)c1ccccc1C2=O` , what is it?
-- reply F

-- ask Request: COC(=O)C(Cc1ccccc1)NC(=O)C(CCC(=O)OCc1ccccc1)NC(=O)OC(C)(C)C (configuration not stated)
-- reply F

-- ask # repeat for O=c1[nH]c(=O)n(C2OC(CO)C(O)C2O)c2nc(-c3ccc(-c4ccccc4)cc3)cnc12 (configuration not stated)
-- reply F

-- ask And what about the compound `CN1CCN(c2c(Cl)cc(Cl)c3[nH]c4ccccc4c(=O)c23)CC1` ?
-- reply F

-- ask For O=C1CCCC1CN1CCCC1 (configuration not stated) then?
-- reply T

-- ask Proceed to `Cc1cc(N(CCC#N)S(C)(=O)=O)ccc1C=O`
-- reply F

-- ask What about this compound? `CN(C)C(=S)N/N=C(\C(=N/NC(=S)N(C)C)c1ccccn1)c1ccccn1`
-- reply F

-- ask Next entry: `O=C1c2ccccc2C(=O)C1C(c1ccc([N+](=O)[O-])cc1)C1C(=O)c2ccccc2C1=O`
-- reply F

-- ask And then NC1=NC2(COC(c3ccccc3)(c3ccccc3)c3ccccc3)OC(COC(c3ccccc3)(c3ccccc3)c3ccccc3)C(O)C2O1 (configuration not stated) , what is it?
-- reply F

-- ask Try this compound too: CSc1ncnc2c1ncn2CC(=O)C1CCC2C3CCC4=CC(=O)CCC4(C)C3CCC12C (configuration not stated)
-- reply F

* * *

Task for the reader: assign each of the following compounds its reported GI50.
System: OVCAR-5
Assay info: NCI tumour cell line growth inhibition, 48 h
The source made the active and inactive calls. Cut-off read from the data, not from the text of the source: active = GI50 up to about 1.1 µM and inactive = higher.

Compound | Endpoint label | Result
O=C1Nc2cc([N+](=O)[O-])ccc2N/C1=C/C(=O)c1ccc(Cl)cc1 | GI50 | 21.5 µM (inactive)
C[C@@]12CCC(=O)c3coc(c31)C(=O)c1cc3c(cc12)C(=O)C=CC3=O | GI50 | 20 µM (inactive)
O=C(O)c1cccc(S(=O)(=O)NN2C(=O)CSC2c2ccccc2Cl)c1 (configuration not stated) | GI50 | > 100 µM (inactive)

Okay, here is my list. What is GI50 for each of these?
1. CC1=C(C(=O)CC(=O)C(=O)Nc2ccccc2C)Sc2ccccc2N1
2. NC(=O)C1CCCN1C(=O)N(CCCl)N=O (configuration not stated)
3. CSc1nc(=O)c2nc(-c3cccs3)c(-c3cccs3)nc2n1C
4. Cc1ccc2oc3c(c(Br)c(Br)n3C)c(=O)c2c1

-- reply
1. > 100 µM (inactive)
2. 54.5 µM (inactive)
3. 75.3 µM (inactive)
4. 41.6 µM (inactive)
